# Test system: HL-60
# method.description: NCI tumour cell line growth inhibition, 48 h
Calls of active or inactive are those of the source. Rule as the data show it: active = GI50 up to about 1.1 µM and inactive = higher.
Valid outcomes are listed here; reply with one: Yes (active), No (inactive)

Qu. Answer briefly: the call reported for COc1cc([C@@H]2c3cc4c(cc3[C@@H](NC(=O)c3ccc(N)cc3)C3COC(=O)[C@@H]32)OCO4)cc(OC)c1O (some centres undefined) in this assay.
Ans. Yes

Qu. Check CC1(C)SC2C(NC(=O)C(C(=O)O)c3ccccc3)C(=O)N2C1C(=O)O (centres undefined) too.
Ans. No

Qu. Check O=C1CSC2=NC3=C(CSC/C3=C\c3ccc(Cl)cc3)C(c3ccc(Cl)cc3)N12 (centres undefined) too.
Ans. No

Qu. Check `O=c1c(Cl)c(Cl)cnn1CCc1ccncc1` too.
Ans. No

Qu. Check `CCOC(=N)CC(=O)c1ccccc1` too.
Ans. No

Qu. Check O=C(OCC1OC(n2nc(Cn3nnc(-c4cccnc4)n3)n(-c3cccc4ccccc34)c2=S)C(OC(=O)c2ccccc2)C1OC(=O)c1ccccc1)c1ccccc1 (centres undefined) too.
Ans. No

Qu. Check Cc1c2c(n(CCc3ccc(Cl)cc3)c1C)NC(c1ccccc1)C(C#N)S2(=O)=O (centres undefined) too.
Ans. No

Qu. Check `CN(CCn1cnc2c1c(=O)n(C)c(=O)n2C)C1CCCCC1` too.
Ans. No

Qu. Check O=C(C1OC1c1ccc(Br)cc1O)C12CC3CC(CC(C3)C1)C2 (centres undefined) too.
Ans. No

---

# Test system: HCT-15
# method.description: NCI tumour cell line growth inhibition, 48 h
Consider the following compounds; for each one, report its GI50.
// units = µM; emit number, no label

Qu. Looking for the measured GI50 of CN(C)CCC1(C2=CCCC2)CC/C(=C\c2ccc(Cl)cc2)C1=O (configuration not stated) , can you help?
Ans. 5.07

Qu. Check `CC(=O)Oc1ccc(C(c2ccc(OC(C)=O)cc2)c2ccccn2)cc1` too.
Ans. 39.7

Qu. Check `COc1ccccc1/C=N/N=C(\N)NO` too.
Ans. 6.32

Qu. Check `O=C(/C=C(O)/C(=C/C(=O)c1ccccc1)NN=C(c1ccccc1)c1ccccc1)c1ccccc1` too.
Ans. 23.5

---

# System: SK-MEL-5
# method.description: NCI tumour cell line growth inhibition, 48 h
Calls of active or inactive are those of the source. Cut-off read from the data, not from the text of the source: active = GI50 up to about 1.1 µM and inactive = higher. Non-standard residues stand in square brackets, D forms with d. Residues, ends and D or L forms follow the SMILES beside them. ξ: configuration not given here. Pen = CC(C)(S)[C@H](N)C(=O)O; ξL = CC(C)CC(N)C(=O)O
Consider the following compounds; for each one, report its GI50.

Qu. Looking for the measured GI50 of CC(=O)NC1=C(C)C(=O)c2c(nc3n2CCC3OC(=O)c2ccccc2)C1=N (stereo not given) , can you help?
Ans. 1.42 µM (inactive)

Qu. Check CC(C)(O)C1OCC(C2CCC3(C)C4=CCC5C(C)(C)C(O)CCC5(C)C4CCC23C)CC1O (stereo not given) too.
Ans. 14.7 µM (inactive)

Qu. Check `O=C(Nc1ccccc1C(=O)NCc1ccccc1)/C(=C/c1ccccc1O)NC(=O)c1ccccc1` too.
Ans. > 100 µM (inactive)

Qu. Check `CCc1n[nH]c(=O)n1-c1ccncc1` too.
Ans. > 100 µM (inactive)

Qu. Check CSCC[C@H](NC(=O)C(CC(C)C)NC(=O)[C@H](Cc1c[nH]cn1)NC(=O)CNC(=O)[C@@H](NC(=O)[C@@H](C)NC(=O)[C@H](Cc1c[nH]c2ccccc12)NC(=O)[C@H](CCC(N)=O)NC(=O)[C@@H](N)CC(N)=O)C(C)(C)SC)C(N)=O (stereo not given in full) (H-NQW[dA][Pen](Me)GH[ξL]M-NH2) too.
Ans. > 100 µM (inactive)

Qu. Check `CC1(C)CN=C(Nc2ccc(F)cc2)S1` too.
Ans. > 100 µM (inactive)

Qu. Check `CN1C(=O)CC(=O)N1/C(=C/c1ccccc1)c1ccccc1` too.
Ans. 72.8 µM (inactive)

Qu. Check `C=CC[C@H]1[C@@H](O[Si](C)(C)C(C)(C)C)[C@H](n2ccc(=O)[nH]c2=O)O[C@@H]1CO[Si](C)(C)C(C)(C)C` too.
Ans. 1.72 µM (inactive)

Qu. Check `N#Cc1ccc(Oc2ccccc2)cc1C#N` too.
Ans. > 100 µM (inactive)

Qu. Check `COc1ccc(C)c2c1N[C@](C)([C@]1(C)Nc3c(OC)ccc(C)c3C1=O)C2=O` too.
Ans. > 100 µM (inactive)

Every entry's value here was drawn from ChEMBL document CHEMBL1201862.
